# Minimal inhibitory concentration(MIC), C. albicans IFO. 1385 per record follows
Test system: Candida albicans IFO. 1385
Assay: In vitro antifungal activity, microbroth dilution MIC
Assay type: cell-based
Conditions: RPMI-1640, 35° C., 4 to 48 hours, no growth observed
Parameter measured: Minimal inhibitory concentration(MIC), C. albicans IFO. 1385 (µg/mL)

> print(dat)
                                   molecule  unit.of.measurement  result.modifier   val
1  FC(=C(c1cc(Cl)cc(Cl)c1)C(F)(F)F)N1CCN(c2ccc(OCC3COC(Cn4ccnc4)(c4ccc(Cl)cc4Cl)O3)cc2)CC1 (mixture of isomers)                µg/mL                >   100
2  FC(=Cc1ccc2c(c1)OCO2)OCC1COC(Cn2cncn2)(c2ccc(Cl)cc2Cl)O1 (mixture of isomers)                µg/mL                =  25.0
3  FC(Oc1ccc(OCC2COC(Cn3ccnc3)(c3ccc(Cl)cc3Cl)O2)cc1)=C(c1cccc(F)c1)C(F)(F)F (mixture of isomers)                µg/mL                =  3.13
4  Cc1cc(C)cc(C(=C(F)N2CCN(c3ccc(OCC4COC(Cn5ccnc5)(c5ccc(F)cc5F)O4)cc3)CC2)C(F)(F)F)c1 (mixture of isomers)                µg/mL                =  0.78
5  FC(Oc1ccc(OCC2COC(Cn3ccnc3)(c3ccc(F)cc3F)O2)cc1)=C(c1ccc2c(c1)OCO2)C(F)(F)F (mixture of isomers)                µg/mL                =  1.56

----------
System: Candida albicans IFO. 1385
Experiment: In vitro antifungal activity, microbroth dilution MIC
Type: cell-based
Conditions: C. albicans IFO. 1385, RPMI-1640, 35° C., 4 to 48 hours
Parameter measured: Minimal inhibitory concentration (MIC) (µg/mL)

> print(dat)
                                    compound   val
 1  Cc1ccc(C(=C(F)OCC2COC(Cn3ccnc3)(c3ccc(F)cc3F)O2)C(F)(F)F)cc1C (mixture of isomers) [Ex. 56]  0.78
 2  Cc1ccc(C(=C(F)OCC2COC(Cn3ccnc3)(c3ccc(F)cc3F)O2)C(F)(F)F)cc1 (mixture of isomers) [Ex. 54]  0.78
 3  Cc1cc(C)cc(C=C(F)OCC2COC(Cn3ccnc3)(c3ccc(Cl)cc3Cl)O2)c1 (stereo not shown) [Ex. 6]  0.78
 4  FC(OCC1COC(Cn2ccnc2)(c2ccc(F)cc2F)O1)=C(c1cc(Cl)cc(Cl)c1)C(F)(F)F (mixture of isomers) [Ex. 67]  0.78
 5  CCc1ccc(C=C(F)OCC2COC(Cn3ccnc3)(c3ccc(Cl)cc3Cl)O2)cc1 (stereo not shown) [Ex. 4]  1.56
 6  FC(=Cc1cccc(F)c1)OCC1COC(Cn2ccnc2)(c2ccc(F)cc2F)O1 (mixture of isomers) [Ex. 48]  0.20
 7  Cc1cc(C)cc(C(=C(F)OCC2COC(Cn3ccnc3)(c3ccc(F)cc3F)O2)C(F)(F)F)c1 (mixture of isomers) [Ex. 57]  0.78
 8  FC(OCC1COC(Cn2ccnc2)(c2ccc(Cl)cc2Cl)O1)=C(c1ccc(Cl)cc1)C(F)(F)F (stereo not shown) [Ex. 31]  0.78
 9  FC(OCC1COC(Cn2ccnc2)(c2ccc(F)cc2F)O1)=C(c1ccc(C(F)(F)F)cc1)C(F)(F)F (mixture of isomers) [Ex. 59]  0.78
10  CCOc1ccc(C=C(F)OCC2COC(Cn3ccnc3)(c3ccc(F)cc3F)O2)cc1 (mixture of isomers) [Ex. 44]  0.39
11  CCc1ccc(C(=C(F)OCC2COC(Cn3ccnc3)(c3ccc(Cl)cc3Cl)O2)C(F)(F)F)cc1 (stereo not shown) [Ex. 22]  0.78
12  FC(OCC1COC(Cn2ccnc2)(c2ccc(Cl)cc2Cl)O1)=C(c1cccc(F)c1)C(F)(F)F (mixture of isomers) [Ex. 32]  0.78

Ref: patent US6376497B1
